TARGET_UNDER_TEST: Human STING (Homo sapiens, UniProt Q86WV6, G230A/H232R/R293Q/R71H)
Construct: using human THP1-Blue™ ISG SEAP based reporter cell line (Invivogen)
Sequence (Q86WV6 whole entry R71H/G230A/H232R/R293Q): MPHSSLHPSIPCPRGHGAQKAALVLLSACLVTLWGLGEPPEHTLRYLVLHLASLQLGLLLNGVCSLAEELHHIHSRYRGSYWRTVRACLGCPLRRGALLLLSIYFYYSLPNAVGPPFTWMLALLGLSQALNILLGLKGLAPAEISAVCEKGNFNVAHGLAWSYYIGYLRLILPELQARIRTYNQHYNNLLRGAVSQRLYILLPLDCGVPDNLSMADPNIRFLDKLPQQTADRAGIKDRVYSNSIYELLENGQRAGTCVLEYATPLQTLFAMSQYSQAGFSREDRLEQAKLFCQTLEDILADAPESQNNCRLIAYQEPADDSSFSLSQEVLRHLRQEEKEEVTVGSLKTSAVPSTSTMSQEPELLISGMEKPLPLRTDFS
PROCEDURE_TEXT: Stimulation of human STING signalling in THP1-Blue ISG SEAP reporter cell line
REPORTED_CONDITIONS: THP1-Blue ISG cells, 18-20 hours incubation
pEC50: −log10 of the molar value.
READOUT_TYPE: pEC50

Answered examples (2):
COMPOUND: CCn1nc(C)cc1C(=O)Nc1nc2cc(C(N)=O)cc3c2n1C/C=C/Cn1c(NC(=O)c2cc(C)nn2CC)nc2cc(C(N)=O)cc(c21)OCC(N1CC[C@@H](OC)C1)CO3
MEASURED_RESULT: 8.00 to 9.00

COMPOUND: CCn1nc(C)cc1C(=O)Nc1nc2cc(C(N)=O)cc3c2n1C/C=C/Cn1c(NC(=O)c2cc(C)nn2CC)nc2cc(C(N)=O)cc(c21)OCC(CCN1CCOCC1)CO3
MEASURED_RESULT: 7.00 to 7.96

// next item, pEC50 requested
Data request: Name the recorded pEC50 for CCn1nc(C)cc1C(=O)Nc1nc2cc(C(N)=O)cc3c2n1C/C=C/Cn1c(NC(=O)c2cc(C)nn2CCF)nc2cc(C(N)=O)cc(c21)OCC(N1CCOCC1)CO3 (stereo not drawn) .
Data returned: 7.00 to 7.96
